Biological target: biotinylated Gβ1γ2 mutant Asp186Ala (rat) (UniProt P54311)
Sequence (P54311 whole entry D186A, chain 1 of 2): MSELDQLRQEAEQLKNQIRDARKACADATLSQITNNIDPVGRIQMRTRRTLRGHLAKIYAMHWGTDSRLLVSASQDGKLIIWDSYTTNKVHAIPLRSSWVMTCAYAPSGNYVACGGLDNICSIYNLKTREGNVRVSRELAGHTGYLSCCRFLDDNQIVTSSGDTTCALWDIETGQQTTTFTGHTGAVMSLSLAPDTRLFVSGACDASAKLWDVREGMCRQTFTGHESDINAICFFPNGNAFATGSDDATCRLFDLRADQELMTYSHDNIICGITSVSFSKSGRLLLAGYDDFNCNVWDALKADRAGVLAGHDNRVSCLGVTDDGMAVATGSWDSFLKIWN
Sequence (P63212 2-68, chain 2 of 2, further chain): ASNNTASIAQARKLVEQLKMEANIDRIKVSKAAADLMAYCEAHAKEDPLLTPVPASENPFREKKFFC
Experiment: phage ELISA, % of wild-type b-βγ
Listing of entries alongside the reported % of Wild-Type Signal.
Give just the number in %; leave the unit off.

Consider the following illustrative entries.
In [3]: df
Out[3]:
                                     binder            metric_name  readout_number
0  SCEKRLGVRSCT (Group III) [phage C5 (SCEKRLGVRSCT)]  % of Wild-Type Signal            45.7
1  SCKRTKAQILLAPCT (Group I; also called Cl) [phage C1 (SCKRTKAQILLAPCT)]  % of Wild-Type Signal             1.4
2  SCGHGLKVQSTIGACA (Group II) [phage 3C (SCGHGLKVQSTIGACA)]  % of Wild-Type Signal              35
3  WCPPKAMTQLGIKAC (Group II) [phage C14 (WCPPKAMTQLGIKAC)]  % of Wild-Type Signal             3.6
4               SCEKRYGIEFCT [phage C4 (…)]  % of Wild-Type Signal            51.3
5  LCSKAYLLLGQTC (Group I) [phage 2F (LCSKAYLLLGQTC)]  % of Wild-Type Signal             2.4

Query: What does the data say about its % of Wild-Type Signal? Entry: WCPPKLEQWYDGCA (Group IV) [phage C2 (WCPPKLEQWYDGCA)]
Reply: 267

Query: Further, for SIGKALFILGYPDYD [phage 3.14 (SIGKALFILGYPDYD)] ?
Reply: 14.4
